- tested.system: MAGL (Mus musculus, UniProt O35678)
- Sequence (O35678 whole entry): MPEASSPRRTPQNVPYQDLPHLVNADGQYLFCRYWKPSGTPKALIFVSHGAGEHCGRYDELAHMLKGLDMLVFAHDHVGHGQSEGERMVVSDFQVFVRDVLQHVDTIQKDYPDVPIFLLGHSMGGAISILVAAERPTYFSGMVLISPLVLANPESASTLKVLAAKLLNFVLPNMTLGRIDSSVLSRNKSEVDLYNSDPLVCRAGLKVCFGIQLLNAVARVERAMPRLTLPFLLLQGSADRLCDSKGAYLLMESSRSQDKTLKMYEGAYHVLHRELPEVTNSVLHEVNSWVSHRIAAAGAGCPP
- test.description: In vitro competitive activity-based protein profiling, MAGL, mouse
- assay.setup: read-out: MAGL % inh. 1 μM (mouse)
Entries and their inhibition at 1 µM

// solved cases for inhibition at 1 µM follow
compound	tested.system	inhibition at 1 µM
C[C@H]1CC(N(C)Cc2ccc(C(F)(F)F)cc2N2CCCC2)CCN1C(=O)n1cc(Cl)c(C(=O)O)n1 (stereo partly shown)	MAGL (Mus musculus, UniProt O35678)	50 to 75%
CN(Cc1cccc(Cl)c1N1CCCC1)C1(C)CCN(C(=O)n2ccc(C(=O)O)n2)CC1	MAGL (Mus musculus, UniProt O35678)	> 75%
O=C(O)c1ccn(C(=O)N2CCC3(CCN(Cc4cc(Cl)ccc4C(F)(F)F)CC3)CC2)n1	MAGL (Mus musculus, UniProt O35678)	> 75%
O=C(O)c1ccn(C(=O)N2CCC3(CCN(Cc4cccc(C(F)(F)F)c4Cl)C3)CC2)n1	MAGL (Mus musculus, UniProt O35678)	> 75%
Cc1c(CO[C@@H]2C[C@@H]3CN(C(=O)n4ccc(C(=O)O)n4)C[C@@H]3C2)cccc1C(F)(F)F	MAGL (Mus musculus, UniProt O35678)	> 75%
O=C(O)c1ccn(C(=O)N2CCC3(CCN(Cc4cccc(-c5ccccn5)c4)C3)CC2)n1	MAGL (Mus musculus, UniProt O35678)	0 to 25%
O=C(O)c1ccn(C(=O)N2CCN(Cc3cccc(Oc4ccc(Cl)cc4)c3)CC2)n1	MAGL (Mus musculus, UniProt O35678)	> 75%
COc1cc(-c2ccccc2)ccc1CN1CCN(C(=O)n2ccc(C(=O)O)n2)[C@H](C)C1	MAGL (Mus musculus, UniProt O35678)	> 75%
O=C(O)c1ccn(C(=O)N2CCC3(CCN(Cc4cccc(Oc5ccccn5)c4)C3)CC2)n1	MAGL (Mus musculus, UniProt O35678)	0 to 25%
O=C(O)c1nn(C(=O)N2C[C@H]3C[C@H](Oc4cccc(-c5ccccc5)c4)C[C@H]3C2)cc1C(F)(F)F	MAGL (Mus musculus, UniProt O35678)	> 75%

GET /values?readout=inhibition at 1 µM&system=MAGL (Mus musculus, UniProt O35678)&item= CNC(=O)c1ccn(C(=O)N2CC3CN(Cc4ccc(N5CCOCC5)cc4C(F)(F)F)CC3C2)n1 (stereo not shown)
> 75%
